Task for the reader: assign each of the following compounds its reported chromatographic logP.
# run_description: logP by HPLC on reversed-phase columns (C 18), EEC Directive 79/831 Annex V.A8
# Type: physicochemical
# condition_notes: pH 2.7
Answers are plain numbers.

>  <compound>
Cc1cc(Cl)cc(C(=O)NS(=O)(=O)N(C)C)c1NC(=O)c1cc(Cn2cc(C(F)(F)C(F)(F)F)cn2)nn1-c1ncccc1Cl [Compound 1]

>  <obs_value>
3.35

$$$$

Then this compound:
Tell me the measured chromatographic logP of Cc1cccc(C(=O)NS(C)(=O)=O)c1NC(=O)c1cc(Cn2nnc(C(F)(F)F)n2)nn1-c1ncccc1Cl [Compound 5] , please.
2.47

* * *

Consider the following compounds; for each one, report its chromatographic logP.
# run_description: logP by HPLC on reversed-phase columns (C 18), EEC Directive 79/831 Annex V.A8
# Assay type: physicochemical
# condition_notes: reversed-phase C18 HPLC column; HPLC, reversed-phase C 18, acidic range pH 2.7, 0.1% aqueous formic acid/acetonitrile; read-out: log P
Answers are plain numbers.

Previously resolved entries follow.
>  <compound>
Cc1cc(F)cc(C(=O)O)c1NC(=O)c1cc(Cn2nnc(C(F)(F)C(F)(F)F)n2)nn1-c1ncccc1Br [Compound 3]

>  <obs_value>
3.16

$$$$
>  <compound>
Cc1cc(Cl)cc(C(=S)NC(C)(C)C)c1NC(=O)c1cc(Cn2nnc(C(F)(F)F)n2)nn1-c1ncccc1Cl [Compound 6]

>  <obs_value>
4.33

$$$$
>  <compound>
Cc1cc(Cl)cc(C(=O)O)c1NC(=O)c1cc(Cn2nc(C)c(Br)c2C)nn1-c1ncccc1Cl [Compound 17]

>  <obs_value>
3.16

$$$$
>  <compound>
COC(=O)c1cc(I)cc(C)c1NC(=O)c1cc(Cn2nc(C(F)(F)F)cc2C(F)(F)F)nn1-c1ncccc1Cl [Compound 11]

>  <obs_value>
4.57

$$$$
>  <compound>
Cc1cc(Cl)cc(C(=O)O)c1NC(=O)c1cc(Cn2nnc(C(F)(F)C(F)(F)F)n2)nn1-c1ncccc1Cl [Compound 22]

>  <obs_value>
3.44

$$$$
>  <compound>
Cc1cc(C#N)cc(C(=O)O)c1NC(=O)c1cc(Cn2nnc(C(F)(C(F)(F)F)C(F)(F)F)n2)nn1-c1ncccc1Cl [Compound 13]

>  <obs_value>
3.36

$$$$

Items follow; give chromatographic logP for each.
1. Cc1nc(C(F)(F)F)nn1Cc1cc(C(=O)Nc2c(Cl)cc(Cl)cc2C(=O)O)n(-c2ncccc2Cl)n1 [Compound 19]
2. CNS(=O)(=O)c1cccc(C)c1NC(=O)c1cc(Cn2nnc(C(F)(F)F)n2)nn1-c1ncccc1Cl [Compound 33]

1: 2.68; 2: 2.9

Please state chromatographic logP for every compound in the list that follows.
1. O=C(O)c1cc(Cl)cc(Cl)c1NC(=O)c1cc(Cn2cnc(C(F)F)n2)nn1-c1ncccc1Cl [Compound 12]
2. COC(=O)c1cc(F)cc(C)c1NC(=O)c1cc(Cn2nnc(C(F)(F)F)n2)nn1-c1ncccc1Cl [Compound 29]
3. O=C(O)c1cc(Cl)cc(Cl)c1NC(=O)c1cc(Cn2nnc(C(F)(F)F)n2)nn1-c1ncccc1Cl [Compound 21]
4. Cc1cccc(S(N)(=O)=O)c1NC(=O)c1cc(Cn2nnc(C(F)(F)F)n2)nn1-c1ncccc1Cl [Compound 32]

1: 2.2; 2: 3.33; 3: 3.04; 4: 2.56

Please give chromatographic logP, item by item, for the list that follows.
1. Cc1cc(I)cc(C(=O)O)c1NC(=O)c1cc(Cn2nnc(C(F)(F)C(F)(F)F)n2)nn1-c1ncccc1Br [Compound 2]
2. Cc1cc(I)cc(C(=O)O)c1NC(=O)c1cc(Cn2ncc(C(F)(F)F)n2)nn1-c1ncccc1Cl [Compound 27]

1. 3.69
2. 3.26
